The reported numbers originate from patent US12679804B2.

Target: human orexin type 2 receptor (hOX2R) (Homo sapiens, UniProt O43614)
Construct: expressed in transfected cells
Sequence (O43614 whole entry): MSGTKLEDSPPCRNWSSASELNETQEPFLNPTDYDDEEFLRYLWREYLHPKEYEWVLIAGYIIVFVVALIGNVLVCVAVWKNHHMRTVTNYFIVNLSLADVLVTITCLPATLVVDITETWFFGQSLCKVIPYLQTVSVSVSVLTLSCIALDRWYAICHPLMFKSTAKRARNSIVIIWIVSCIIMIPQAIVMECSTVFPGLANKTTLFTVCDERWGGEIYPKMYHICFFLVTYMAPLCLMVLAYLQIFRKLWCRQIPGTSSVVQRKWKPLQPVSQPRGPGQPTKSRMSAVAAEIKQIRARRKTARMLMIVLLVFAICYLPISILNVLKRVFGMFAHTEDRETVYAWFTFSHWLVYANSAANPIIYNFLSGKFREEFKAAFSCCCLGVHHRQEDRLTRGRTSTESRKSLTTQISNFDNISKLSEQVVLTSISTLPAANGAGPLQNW
Assay: Orexin type 2 receptor agonist activity (FLIPR TETRA intracellular Ca2+ fluorescence)
Type: cell-based
Conditions: value at 10 μM; dilution buffer = 0%, 10 nM human orexin A = 100%; read-out: hOx2 Emax
Experimental: Stable cell line generation. […] Measurement of orexin type 2 receptor agonist activity. […] The agonist activity of the test compound was calculated assuming that the fluorescence value of the well added with only the dilution buffer was 0% and the fluorescence value of the well added with 10 nM human orexin A (Tocris) buffer was 100%. […]
measure: Emax at 10 µM

// worked examples, Emax at 10 µM included
Lookup: Look up Emax at 10 µM: CC1(C#Cc2cccc(C[C@@H]3[C@H](NS(C)(=O)=O)CCCN3C(=O)[C@H]3CCO3)c2F)CC1 (single isomer, unassigned)
Found: 60 to 70%

Lookup: Look up Emax at 10 µM: CCS(=O)(=O)NC1CCN(C(=O)C(C)(C)O)C1Cc1cccc(C#CC2CC2)c1 (racemic)
Found: 80 to 90%

Lookup: Look up Emax at 10 µM: CCS(=O)(=O)NC1CCN(C(=O)C(C)C)C1Cc1cccc(C#CCOC)c1F (racemic)
Found: 70 to 80%

Lookup: Look up Emax at 10 µM: CCS(=O)(=O)NC1CCN(C(=O)C(C)C)C1Cc1cccc(C#CC2CC2)c1F (racemic)
Found: ≥ 90%

Lookup: Look up Emax at 10 µM: CC1(C#Cc2cccc(C[C@H]3[C@@H](NS(C)(=O)=O)CCN3C(=O)[C@H]3CCO3)c2)CC1
Found: ≥ 90%

Lookup: Look up Emax at 10 µM: CC1(C#Cc2cccc(C[C@H]3[C@@H](NS(C)(=O)=O)CCN3C(=O)[C@H]3CCO3)c2F)CC1
Found: ≥ 90%

Lookup: Look up Emax at 10 µM: CCS(=O)(=O)NC1CCN(C(=O)N2CCC2)C1Cc1cccc(C#CC2CC2)c1F (racemic)
Found: ≥ 90%

Lookup: Look up Emax at 10 µM: CCS(=O)(=O)NC1CCN(C(=O)C(C)C)C1Cc1cccc(C#CC2CCCC2)c1 (racemic)
Found: ≥ 90%

Lookup: Look up Emax at 10 µM: CC1(C#Cc2cccc(C[C@H]3[C@@H](NS(C)(=O)=O)CCN3C(=O)N3CCC3)c2F)CC1
Found: ≥ 90%

Lookup: Look up Emax at 10 µM: CCS(=O)(=O)NC1CCN(C(=O)C(C)C)C1Cc1cccc(C#CC2CC2)c1 (racemic)
Found: ≥ 90%

Next:
Lookup: Look up Emax at 10 µM: CCS(=O)(=O)NC1CCN(C(=O)C(C)C)C1Cc1cccc(C#CC(C)(C)C)c1 (racemic)
Found: ≥ 90%

Lookup: Look up Emax at 10 µM: CCS(=O)(=O)NC1CCN(C(=O)C(C)C)C1Cc1cccc(C#CC2(C)COC2)c1 (racemic)
Found: ≥ 90%

Lookup: Look up Emax at 10 µM: CCS(=O)(=O)NC1CCN(C(=O)N2CCC2)C1Cc1cccc(C#CC2CC2)n1 (racemic)
Found: 80 to 90%

Lookup: Look up Emax at 10 µM: CS(=O)(=O)N[C@H]1CCN(C(=O)N2CCC2)[C@H]1Cc1cccc(C#CC2CCC2)c1F
Found: ≥ 90%

Lookup: Look up Emax at 10 µM: CCS(=O)(=O)NC1CCN(C(=O)C(C)C)C1Cc1cccc(C#CC2COC2)c1 (racemic)
Found: 70 to 80%
